# System: RAW 264.7 cells
# test name: Cytotoxicity, MTT dye reduction assay
# Format: cell-based, murine
# study conditions: highest concentration of 128 μM, 4 h, three independent repeats
# Description: The cytotoxicity of peptides was determined by healthy human erythrocytes and the murine macrophage cell line RAW 264.7 via a hemolysis assay and MTT dye reduction assay, respectively ([Wang et al., 2018]). […] The absorbance at 570 nm indicated the leakage of hemoglobin. […] Formazan crystals were dissolved in 150 μL of DMSO, and the OD570 nm was measured using a microplate reader (TECAN GENios F129004; TECAN, Austria). […]
Positions of bridges follow the written chain, without caps; N, C: chain ends. Residues, ends and D or L forms follow the SMILES beside them.
observable: RAW 264.7 cell survival rate

# compound, observable, result
records = [
    ("C[C@H](NC(=O)[C@H](C)NC(=O)[C@H](Cc1c[nH]c2ccccc12)NC(=O)[C@H](Cc1c[nH]c2ccccc12)NC(=O)[C@H](Cc1c[nH]c2ccccc12)NC(=O)[C@H](CCCNC(=N)N)NC(=O)[C@@H]1CSSC[C@H](N)C(=O)N[C@@H](C)C(=O)N[C@@H](CO)C(=O)N[C@@H](Cc2ccc(O)cc2)C(=O)N[C@@H](Cc2ccccc2)C(=O)N1)C(N)=O [Peptide S3] (H-CASYFCRWWWAA-NH2; disulfide 1-6; N-terminus assumed)", "RAW 264.7 cell survival rate", "84%"),
    ("CC(C)C[C@H](NC(=O)[C@H](CC(C)C)NC(=O)[C@H](Cc1c[nH]c2ccccc12)NC(=O)[C@H](Cc1c[nH]c2ccccc12)NC(=O)[C@H](Cc1c[nH]c2ccccc12)NC(=O)[C@H](CCCNC(=N)N)NC(=O)[C@H](CS)NC(=O)[C@H](Cc1ccccc1)NC(=O)[C@H](Cc1ccc(O)cc1)NC(=O)[C@H](CO)NC(=O)[C@H](C)NC(=O)[C@@H](N)CS)C(N)=O [Peptide S4] (H-CASYFCRWWWLL-NH2; N-terminus assumed)", "RAW 264.7 cell survival rate", "90%"),
    ("CC(C)C[C@H](NC(=O)[C@H](CC(C)C)NC(=O)[C@H](Cc1c[nH]c2ccccc12)NC(=O)[C@H](Cc1c[nH]c2ccccc12)NC(=O)[C@H](Cc1c[nH]c2ccccc12)NC(=O)[C@H](CCCNC(=N)N)NC(=O)[C@@H]1CSSC[C@H](N)C(=O)N[C@@H](C)C(=O)N[C@@H](CO)C(=O)N[C@@H](Cc2ccc(O)cc2)C(=O)N[C@@H](Cc2ccccc2)C(=O)N1)C(N)=O [Peptide S2] (H-CASYFCRWWWLL-NH2; disulfide 1-6; N-terminus assumed)", "RAW 264.7 cell survival rate", "105%"),
]
